Source: ChEMBL document CHEMBL4052655

- experimental protocol: Dark toxicity against human HepG2 cells assessed as cell viability at 10 uM pretreated for 24 hrs followed by 14 mins dark incubation measured after 1 to 24 hrs by Alamar blue assay relative to control
- Type: cell-based
- details: read-out: Activity
attribute measured: viability at 24 h, 10 µM (%)

CCCCCCN1/C(=C/C2=C([O-])C(=C\c3ccc4ccccc4[n+]3CCCCCC)/C2=O)Sc2ccccc21; 15

---

- experimental protocol: Dark toxicity against human HepG2 cells assessed as cell viability at 5 to 10 uM pretreated for 24 hrs followed by 14 mins dark incubation measured after 1 to 24 hrs by Alamar blue assay relative to control
- Assay type: cell-based
- details: read-out: Activity
attribute measured: viability at 24 h, 10 µM (%)

CCCCCCN1/C(=C/C2=C(N)C(=C\c3ccc4ccccc4[n+]3CCCCCC)/C2=O)Sc2ccccc21; 0
CCCCCCN1/C(=C/C2=C(NC)C(=C\c3ccc4ccccc4[n+]3CCCCCC)/C2=O)Sc2ccccc21.[I-]; 0
